Protocol Details: Single-dose oral toxicokinetic study of prodrugs in rats
Type: in vivo, rat
Details: male, Sprague Dawley, rat, plasma, po, 236 mg/kg; read-out: AUC from zero to ∞

- Smiles: "O=C(C(=O)N1CCN(C(=O)c2ccccc2)CC1)c1c[nH]c2c(-n3ccnn3)ncc(F)c12"
  AUC: "3700 µM·h"

* * *

Protocol Details: IV and oral rat PK (MAP) studies A, B, C of phosphate prodrugs and parent studies A1, B1, C1
Type: in vivo, Sprague-Dawley rats
Details: male, Sprague-Dawley, rat, plasma, po, 5 mg/kg, rats, historic, after PO dosing of parent 5 mpk
Each item that follows carries a reported Cmax.
Property Label: Cmax

- Smiles: "COc1ncc(OC)c2c(C(=O)C(=O)N3CCN(C(=O)c4ccccc4)CC3)c[nH]c12"
  Property Label: "Cmax"
  Test Result: "4.5 µM"
- Smiles: "COc1cnc(-n2cnc(C)n2)c2[nH]cc(C(=O)C(=O)N3CCN(C(=O)c4ccccc4)CC3)c12"
  Property Label: "Cmax"
  Test Result: "13.4 µM"
